Data origin: ChEMBL document CHEMBL3507680

assay: Human HepG2 cell viability assay in 384 well format; assay type: toxicity, cell-based; parameters: dose 125 nL, time 70.5 hour; concentration not given beside the values; conditions: HepG2 cells, read-out: Inhibition
Field: cytotoxicity at 70.5 h. Provide a value for each of the compounds that follow.
Field format: number, assumed %, no unit text.

For reference, reported cytotoxicity at 70.5 h for `CC(=O)N1CCCc2cc(NC(=O)NCCc3cnn(C)c3)ccc21` stands at -2.87

For reference, reported cytotoxicity at 70.5 h for `CCCN1CCN(C(=O)c2cccnc2-n2cncn2)CC1` stands at -2.43

For reference, reported cytotoxicity at 70.5 h for `O=S(=O)(c1ccccc1)N1C[C@@H]2COC[C@]2(COCC2CC2)C1` stands at 1.08

For reference, reported cytotoxicity at 70.5 h for `COc1ccc(C(=O)Nc2cnn(CC(=O)NC3CCCC3)c2)c(O)c1` stands at -1.19

For reference, reported cytotoxicity at 70.5 h for `CCN1CCc2c(CNC(=O)c3nccn3C)cncc2C1` stands at -10.7

For reference, reported cytotoxicity at 70.5 h for COCC1COCCC12CCN(S(=O)(=O)c1ccc(C)cc1)CC2 (centres undefined) stands at -4.01

For reference, reported cytotoxicity at 70.5 h for `NC(=O)CN1CCC(C(=O)NCc2ccc3c(c2)OCCCO3)CC1` stands at -8.05

For reference, reported cytotoxicity at 70.5 h for Cn1nc(N2CCCC(C(=O)Nc3nccs3)C2)ccc1=O (centres undefined) stands at 18

For reference, reported cytotoxicity at 70.5 h for `Cc1ccccc1N1CCCN(C(=O)CCc2ccncc2)CC1` stands at -9.24

For reference, reported cytotoxicity at 70.5 h for `CCn1nc(C(C)C)cc1C(=O)N1CCOc2ccc(OC)cc21` stands at -5.2

For reference, reported cytotoxicity at 70.5 h for `Cn1ccnc1CNCCNc1ncc(Cl)cc1Cl` stands at -5.95

For reference, reported cytotoxicity at 70.5 h for CCCC(NC(=O)c1cc(C)ccc1O)c1nnn[nH]1 (centres undefined) stands at -10.4

For reference, reported cytotoxicity at 70.5 h for Cc1nnc2n1CCN(C(=O)C(OC1CCCC1)c1ccccc1)C2 (centres undefined) stands at -1.74

For reference, reported cytotoxicity at 70.5 h for `CN(C(=O)c1cccc(Cl)c1)C1CCN(c2ccccn2)CC1` stands at 2.1

For reference, reported cytotoxicity at 70.5 h for `Cc1ncc2c(n1)CCN(C(=O)Cc1c(C)noc1C)C2` stands at 22.9

For reference, reported cytotoxicity at 70.5 h for `Cc1cc(CNc2ccc(C(=O)N3CCc4ccccc43)cn2)on1` stands at -1.24

For reference, reported cytotoxicity at 70.5 h for Cc1nccn1-c1cccc(C2CCCN2S(=O)(=O)c2cn(C)cn2)n1 (centres undefined) stands at 31.6

For reference, reported cytotoxicity at 70.5 h for O=C(NCc1ccccc1)N1CCC2(CC(=O)N(c3ccccc3)C2)C1 (centres undefined) stands at -5.57

For reference, reported cytotoxicity at 70.5 h for Cc1cccnc1C(Nc1nccc(C2CCCC2)n1)C1CC1 (centres undefined) stands at 0.357

For reference, reported cytotoxicity at 70.5 h for O=C(c1cnccn1)N1CCCC2(CCN(c3ncccn3)C2)C1 (centres undefined) stands at 4.46

For reference, reported cytotoxicity at 70.5 h for `CNC(=O)N1CC[C@@H]2CN(CCc3cccc(OC)c3)S(=O)(=O)[C@@H]2CC1` stands at -0.824

For reference, reported cytotoxicity at 70.5 h for O=C(c1ccco1)N1CCOCC2(C1)CN(c1ccccn1)C(=O)CO2 (centres undefined) stands at -4.96

For reference, reported cytotoxicity at 70.5 h for `Cc1nc(CN2CCC23CCN(C(=O)c2ccncc2)CC3)cs1` stands at -9.81

For reference, reported cytotoxicity at 70.5 h for COCC(O)CNc1ccc(C#N)cc1C(F)(F)F (centres undefined) stands at -9.81
